Reference for the values: ChEMBL document CHEMBL5360615

measurement target: Mu-type opioid receptor (Mus musculus)
Sequence (P42866 whole entry, the tested form may be a part): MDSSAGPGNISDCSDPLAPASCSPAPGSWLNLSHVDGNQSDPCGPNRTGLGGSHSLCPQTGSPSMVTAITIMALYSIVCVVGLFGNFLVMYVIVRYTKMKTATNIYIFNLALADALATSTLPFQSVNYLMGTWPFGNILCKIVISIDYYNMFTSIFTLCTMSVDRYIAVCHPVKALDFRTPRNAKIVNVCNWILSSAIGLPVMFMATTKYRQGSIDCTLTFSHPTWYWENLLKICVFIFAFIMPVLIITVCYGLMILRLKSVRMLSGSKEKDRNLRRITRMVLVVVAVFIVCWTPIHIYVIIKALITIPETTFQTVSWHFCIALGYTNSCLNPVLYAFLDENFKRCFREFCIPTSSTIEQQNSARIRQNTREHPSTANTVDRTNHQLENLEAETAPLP
protocol summary: Agonist activity at SNAP-tagged mouse MOR transfected in HEK293T cells coexpressing wild type Galpha-i2, venus-tagged Gbeta-1 (156 to 239 residues), venus-tagged Ggamma2 (1 to 155 residues) and Rluc8 fused masGRK3ct assessed as Galpha-i2 activation using coelenterazine as substrate incubated for 40 mins by BRET based GPA assay
Format: functional, cell-based
test settings: read-out: EC50
observed property: EC50 (nM)
Express it in nM; write the number only.

| molecule | measurement target | observed property | measured number |
| --- | --- | --- | --- |
| Clc1ccc([C@@H]2C[C@H]2NCCC2(c3ccccn3)CCOC3(CCCC3)C2)cc1 (relative stereo) | Mu-type opioid receptor (Mus musculus) | EC50 | 73.4 |

// next item, EC50 requested
Req: Find the measured EC50 of `Clc1cccc(N2CCN(CCC3(c4ccccn4)CCOCC3)CC2)c1Cl` with Mu-type opioid receptor (Mus musculus) as test system.
Resp: 848

---

measurement target: Mu-type opioid receptor (Mus musculus)
protocol summary: Partial agonist activity at SNAP-tagged mouse MOR transfected in HEK293T cells coexpressing wild type Galpha-i2, venus-tagged Gbeta-1 (156 to 239 residues), venus-tagged Ggamma2 (1 to 155 residues) and Rluc8 fused masGRK3ct assessed as Galpha-i2 activation using coelenterazine as substrate incubated for 40 mins by BRET based GPA assay
Format: functional, cell-based
observed property: log10 EC50 (log10 of the value in µM)
Kindly note that the scale is log10 and the underlying EC50 is in µM.

Sample answers from the record:
| compound | measurement target | log10 EC50 |
| --- | --- | --- |
| CN(C)C(=O)C(CCN1C[C@H](F)C[C@H]1C(=O)NCCCCN1CCN(c2cccc(C(F)(F)F)n2)CC1)(c1ccccc1)c1ccccc1 | Mu-type opioid receptor (Mus musculus) | 0.06 |
| CN(C)C(=O)C(CCN1CCC(CCN2CCN(c3cccc(Cl)c3Cl)CC2)C1)(c1ccccc1)c1ccccc1 (stereo unspecified) | Mu-type opioid receptor (Mus musculus) | -0.80 |
| CCc1cc(Cl)c(OC)c(N2CCN(C[C@@H]3C[C@@H](O)CN3CCC(C(=O)N(C)C)(c3ccccc3)c3ccccc3)CC2)c1 | Mu-type opioid receptor (Mus musculus) | 0.52 |
| CN(C)C(=O)C(CCN1C[C@H](O)C[C@H]1C(=O)NCCCCN1CCN(c2cccc(Cl)c2Cl)CC1)(c1ccccc1)c1ccccc1 | Mu-type opioid receptor (Mus musculus) | 0.26 |
| CN(C)C(=O)C(CCN1C[C@H](O)C[C@H]1CN1CCN(c2cccc(Cl)c2Cl)CC1)(c1ccccc1)c1ccccc1 | Mu-type opioid receptor (Mus musculus) | 0.54 |

// next item, log10 EC50 requested
Req: Respond only with log10 EC50 recorded for `CN(C)C(=O)C(CCN1C[C@H](O)C[C@H]1C(=O)NCCCCN1CCN(c2cccc(C(F)(F)F)n2)CC1)(c1ccccc1)c1ccccc1`
Resp: -0.33

---

measurement target: Mu-type opioid receptor (Mus musculus)
protocol summary: Partial agonist activity at Rluc8 fused mouse MOR transfected in HEK293T cells assessed as Nb33 recruitment at 10 uM using coelenterazine as substrate incubated for 40 mins by BRET assay relative to control
Format: functional, cell-based
Active and inactive are the calls of the source. No cut-off for these calls is given here.
observed property: Emax

Sample answers from the record:
| compound | result |
| --- | --- |
| CN(C)C(=O)C(CCN1CCC(CCN2CCN(c3cccc(Cl)c3Cl)CC2)C1)(c1ccccc1)c1ccccc1 (stereo not given) | 14.6% |
| CCc1cc(Cl)c(OC)c(N2CCN(C[C@@H]3C[C@@H](O)CN3CCC(C(=O)N(C)C)(c3ccccc3)c3ccccc3)CC2)c1 | inactive |
| CN(C)C(=O)C(CCN1C[C@H](O)C[C@H]1CN1CCN(c2cccc(Cl)c2Cl)CC1)(c1ccccc1)c1ccccc1 | 12.7% |
| COc1ccsc1CNCC[C@@]1(c2ccccn2)CCOC2(CCCC2)C1 | 31.4% |

// next item, Emax requested
Req: Respond only with Emax recorded for `CN(C)C(=O)C(CCN1C[C@H](F)C[C@H]1C(=O)NCCCCN1CCN(c2nsc3ccccc23)CC1)(c1ccccc1)c1ccccc1`
Resp: inactive
